Tested on: EKVX NSCLC
experimental-details: NCI tumour cell line growth inhibition, 48 h
Kindly state TGI for each of the entries shown.

molecule "CCCn1cnc2c(SCc3ccc(Cl)cc3)nc(N)nc21" , TGI observed: 43.5 µM

molecule "CCOC(=O)c1c(OCC)[nH]c(=O)c(C(c2cccs2)c2c(O)c(C(=O)OCC)c(OCC)[nH]c2=O)c1O" , TGI observed: 32.7 µM

molecule "COC(=O)[C@@H](NC(=O)N(Cc1ccccc1)C[C@H](CC(C)C)NC(=O)[C@@H](NC(=O)OC(C)(C)C)C(C)C)C(C)C" , TGI observed: > 100 µM

molecule NC(CCc1ncc(C(=O)O)s1)C(=O)O (stereo not given) , TGI observed: > 100 µM

molecule "COc1cc(/C=C/C(=O)Oc2ccccc2)ccc1C(=O)O/C=C/c1ccccc1" , TGI observed: > 100 µM

molecule "O=P1(Cc2ccccc2)N(Cc2ccccc2)[C@@H]2CCCC[C@H]2N1Cc1ccccc1" , TGI observed: 22.4 µM

molecule "CCCCCCCCCCCC(=O)OC[C@@H](C[As](=O)(O)O)OC(=O)CCCCCCCCCCC" , TGI observed: 28.8 µM

molecule CCCCC1C=Cn2c(=O)oc3c(OC(C)C)c(C)c(O)c1c32 (stereo not given) , TGI observed: 6.83 µM

molecule CCOC(=O)CCC(NC(=O)c1ccc(NCc2ccc3nc(-c4ccccc4)c(Cl)nc3c2)cc1)C(=O)OCC (stereo not given) , TGI observed: > 100 µM

molecule "O=C(N[C@@H](Cc1coc2ccccc12)B(O)O)[C@@H]1C[C@H]2CC[C@@H]1O2" , TGI observed: > 100 µM

molecule "NCCCNCCCCN1CCOC1=O" , TGI observed: > 100 µM

molecule O=C1/C(=C\c2cccc(Oc3ccccc3)c2)S(=O)(=O)C(c2ccccc2)N1c1cccc(Cl)c1 (stereo not given) , TGI observed: > 100 µM

molecule "NCCCOc1cc2ccccc2cc1C(=O)NCCCOc1cc2ccccc2cc1C(=O)Nc1ccc(Cl)cc1O" , TGI observed: 2.43 µM

molecule "O=c1[nH]c2nc3ccccc3c(=O)n2/c1=C/c1cccs1" , TGI observed: > 100 µM

molecule "COc1ccc2nc(-c3ccccc3)c(=O)[nH]c2c1" , TGI observed: > 100 µM

molecule COc1ccc(C2c3cc4c(cc3OC(N3CCOCC3)C2C)OCO4)cc1 (stereo not given) , TGI observed: > 100 µM

molecule CC(=O)SC(C[N+](=O)[O-])c1ccc2c(c1)OCO2 (stereo not given) , TGI observed: 52.5 µM

molecule "Cc1ccc2occ/c(=N\Nc3ccccc3)c2c1" , TGI observed: 98 µM

molecule "COc1cc(Nc2nc3cc(C(F)(F)F)ccc3nc2C(=O)O)cc(OC)c1OC" , TGI observed: > 100 µM

molecule "O=Cc1ccc(-c2ccc(-c3ccc(CO)s3)o2)s1" , TGI observed: > 69.1 µM

molecule "Cc1ccc(NC(=O)C(=O)C2C(=O)NC(=O)NC2=O)cc1C" , TGI observed: > 100 µM

molecule "CC1(C)OP(=O)(O)C=C1Sc1ccc([N+](=O)[O-])cc1[N+](=O)[O-]" , TGI observed: > 100 µM

molecule "COc1cc(OC)c2sc(-c3ccc(-n4cncc4-c4cc(OC)c(OC)c(OC)c4)cc3)nc2c1" , TGI observed: > 100 µM

molecule "CCOC(=O)CCC1(CCC(=O)OCC)CCCCCCCCC(CCC(=O)OCC)(CCC(=O)OCC)C(=O)C1=O" , TGI observed: > 100 µM

molecule "O=C1c2ccc3c4ccccc4n(-c4ccccc4)c3c2C(=O)N1c1ccc(Cl)cc1" , TGI observed: > 100 µM

molecule C[Si](C)(C)CN1C(=O)c2ccccc2C1(O)c1ccccc1 (stereo not given) , TGI observed: > 100 µM

molecule CC(=O)O[C@]12CCCCCC1C1(O)C(O)CCCCC12 (stereo not given in full) , TGI observed: > 100 µM

molecule C=C1C(O)C2C(=C(C)C13CC3)C(=O)C(C)(C)C2OC (stereo not given) , TGI observed: > 100 µM

molecule "N[C@H](Cc1ccc2oc3cc(=O)c4ccccc4c-3nc2c1)C(=O)O" , TGI observed: > 100 µM

molecule "Nc1ccc(C2=N/C(=C\c3cccc(N)c3)C(=O)O2)cc1" , TGI observed: > 100 µM

// data source = PubChem BioAssay (NCI)
